This collection of values is drawn from ChEMBL document CHEMBL3507680.

# test method notes: Human HepG2 cell viability assay in 384 well format
# Assay type: toxicity, cell-based
# Design: dose 125 nL, time 70.5 hour; concentration not given beside the values
# condition label: HepG2 cells, read-out: Inhibition
Decide by cytotoxicity at 70.5 h: equal to or exceeding -10% means YES, less means NO.

Recorded results for 5 compounds are shown here.
compound	cat
CCCS(=O)(=O)N1CCOC2(CCCN(c3ccccn3)C2)C1 (stereo unspecified)	NO
CC(C)C(O)CNC(=O)CCCc1ccccn1 (stereo unspecified)	YES
CCN1CCOC(CNCc2c(Cl)nc3ccccn23)C1 (stereo unspecified)	NO
CC(OCC1CC1)C(=O)N1CCCN(Cc2nccn2C(C)C)CC1 (stereo unspecified)	YES
COc1ccc(-c2cnc(N(C)C)nc2C2CN(C(C)=O)CCO2)cc1 (stereo unspecified)	NO

Continue with the compound presented below.
*Q* For this compound, is measured cytotoxicity at 70.5 h -10% or higher? COc1cccc2c1OCC(CNC(=O)Cc1cnccn1)C2 (stereo unspecified)
*A* YES

----------
# test method notes: Human HepG2 cell viability assay in 384 well format
# Assay type: toxicity, cell-based
# Set-up: dose 125 nL, time 70.5 hour; concentration not given beside the values
# condition label: HepG2 cells, read-out: Inhibition
Reported values of cytotoxicity at 70.5 h for individual entries
Numbers only here, please. The scale is %.

Examples from the recorded data:
compound	unit info	result
CC(C)COC1CC2(CCN(Cc3nccn3C)CC2)C1	%	6.92
CN(CCO)CC1COCCN1C(=O)CCC1CCCC1 (configuration not stated)	%	47.6
O=C(Nc1ccc(F)cc1)C1CNCCN1C(=O)CC1CCCCC1 (configuration not stated)	%	31.3
CC[C@H]1CN(C(=O)c2cccnc2)CC[C@H]1CC(=O)NC1CC1	%	-4.36
CCO[C@H]1CC[C@H]2[C@H]1OCCN2C(=O)COc1ccccc1	%	-4.98

*Q* Which value of cytotoxicity at 70.5 h has been reported for COCCN1CCC(NCc2ccc(F)cc2F)C1 (configuration not stated) in the records?
*A* 5.5

*Q* So what's the measured cytotoxicity at 70.5 h for this one? "CCn1nc(C)c2nc(C)nc(NCCc3ccccc3)c21"
*A* 2.39

*Q* Which cytotoxicity at 70.5 h is listed for "Cc1cncc(C2CCN(Cc3ccsc3)CC2)n1" ?
*A* 4.8

*Q* Dear colleague, I am looking for the recorded cytotoxicity at 70.5 h of the following compound: "NC(=O)C1CCN(CCc2ccc(NCc3ccoc3)cc2)CC1"
*A* -5.59

*Q* // returns reported cytotoxicity at 70.5 h for input "CCOc1cc(CNc2cc(-c3nc(C)no3)ccn2)ccc1OC"
*A* 1.28

*Q* If you can, please state the reported cytotoxicity at 70.5 h value of "CC(=O)N1CCC2(CCN(C(=O)c3cccc(C(F)(F)F)c3)CC2)C1" .
*A* 7.98

*Q* Dear colleague, I am looking for the recorded cytotoxicity at 70.5 h of the following compound: O=C(c1ccc2nncn2c1)N1CCCCC1Cn1cccn1 (configuration not stated)
*A* 8.64

----------
# test method notes: Human HepG2 cell viability assay in 384 well format
# Type: toxicity, cell-based
# Set-up: dose 125 nL, time 70.5 hour; concentration not given beside the values
# condition label: HepG2 cells, read-out: Inhibition
Entries annotated with measured cytotoxicity at 70.5 h
Report the value in % with no unit label.

Solved entries:
compound	unit info	cytotoxicity at 70.5 h
CN(C)C(=O)CN1CCC2(CCCN(Cc3cccs3)C2)C1=O (stereo not drawn)	%	-12.9
COc1ccc(-c2nnc(SC(C)C(N)=O)[nH]2)c(OC)c1 (stereo not drawn)	%	-8.05
COC[C@]12COC[C@H]1CN(Cc1ccc3ccccc3n1)C2	%	-3.53
CCOC1CCCN(C(=O)c2[nH]nc(C(C)C)c2Br)C1 (stereo not drawn)	%	11.3
Cc1nnc(NC(=O)NCc2ccc(F)cc2)s1	%	-1.95

*Q* Give the measured cytotoxicity at 70.5 h of "CS(=O)(=O)NC1CCN(C(=O)NCCNc2ccccn2)CC1" .
*A* 20.3

*Q* Which cytotoxicity at 70.5 h reading was recorded for the compound "Cc1nccc([C@@H]2C[C@@H]3CCN(Cc4c(C)noc4C)C[C@H]3O2)n1" ?
*A* -10.7

*Q* # input compound: "CN(C)CC(=O)N1CC[C@H]2OCC[C@@]2(COCC2CC2)C1" ; wanted: its cytotoxicity at 70.5 h
*A* -11.9

*Q* I'd like to know its cytotoxicity at 70.5 h. The compound in question is "CCOc1ccc2[nH]c(=O)c(CN3CCC(n4cnnc4)CC3)cc2c1"
*A* -4.91

*Q* Which cytotoxicity at 70.5 h is listed for "CN(Cc1nc(-c2ccccc2)no1)C(=O)CNS(C)(=O)=O" ?
*A* -8.66

*Q* What does the data say about its cytotoxicity at 70.5 h? Entry: "Cc1ccc(CSCCn2nc3ccccn3c2=O)cc1"
*A* -1.35

*Q* cytotoxicity at 70.5 h lookup needed for Cc1n[nH]c(C)c1Sc1ccccc1NC(=O)N1CCOCC(O)C1 (stereo not drawn) , thanks.
*A* 2.32

*Q* Return reported cytotoxicity at 70.5 h; argument: COCC(=O)N1CCCC1c1nc(C)c2c(n1)N(CC(C)C)C(=O)CC2 (stereo not drawn)
*A* -6.03

*Q* Field request: cytotoxicity at 70.5 h | item: "CCN(CC(=O)Nc1cc(Cl)ccc1C)C(=O)c1ccncc1"
*A* -1.81

*Q* Give its cytotoxicity at 70.5 h value. Item: "CC(C)n1ccc(-c2cc(C(=O)N3CCN(C)CC3)c3ccccn23)n1"
*A* -3.84

*Q* Could you tell me which cytotoxicity at 70.5 h is on file for "O=C(NCc1ccoc1)NC1CCN(c2ncccn2)CC1" ?
*A* 16.1

*Q* // cytotoxicity at 70.5 h lookup, key: CN(C)CCn1ccnc1C1CCCN(c2cc(N)ncn2)C1 (stereo not drawn)
*A* 23.6

*Q* For Cc1cccc(C(=O)NC(C(=O)NCc2ccc(O)nc2)C(C)C)c1 (stereo not drawn) , what is its reported cytotoxicity at 70.5 h?
*A* -10.8

----------
# test method notes: Human HepG2 cell viability assay in 384 well format
# Format: toxicity, cell-based
# Set-up: dose 125 nL, time 70.5 hour; concentration not given beside the values
# condition label: HepG2 cells, read-out: Inhibition
Measured cytotoxicity at 70.5 h values are reported for all entries that follow.
Your answer is read as %, so omit the unit and give the number.

*Q* Which value of cytotoxicity at 70.5 h has been reported for CCN1CC2(CC1=O)CN(Cc1ccccn1)CCN(C(C)=O)C2 (stereo unspecified) in the records?
*A* -10.2

----------
# test method notes: Human HepG2 cell viability assay in 384 well format
# Format: toxicity, cell-based
# Design: dose 125 nL, time 70.5 hour; concentration not given beside the values
# condition label: HepG2 cells, read-out: Inhibition
# cytotoxicity at 70.5 h values compiled below

compound	measured metric	result
c1cc(C2CC2)n2cnc(C3CN(Cc4ccncc4)CCO3)c2c1 (stereo unspecified)	cytotoxicity at 70.5 h	-1.44%
CC1=C(c2ccc(C(C)C)cc2)S(=O)(=O)N=C1N1CCc2ccccc21	cytotoxicity at 70.5 h	33.6%
CCC(O)CN1CCN(C(=O)c2csc(COC)n2)CC1 (stereo unspecified)	cytotoxicity at 70.5 h	-3.48%
CC(C)N(CC(=O)O)Cc1cccc(Br)c1	cytotoxicity at 70.5 h	2.77%
CCN(Cc1cccc2c1OCO2)C(=O)C(C)c1cccnc1 (stereo unspecified)	cytotoxicity at 70.5 h	1.7%

*Q* Quick one: cytotoxicity at 70.5 h for CN1CCOC(CN(C(=O)CCc2ccco2)c2nccs2)C1 (stereo unspecified) ?
*A* 10.3%

----------
Parameter cytotoxicity at 70.5 h: see the listing below.
# test method notes: Human HepG2 cell viability assay in 384 well format
# Assay type: toxicity, cell-based
# Parameters: dose 125 nL, time 70.5 hour; concentration not given beside the values
# condition label: HepG2 cells, read-out: Inhibition
// return numeric value only (unit: %, not printed)

compound	cytotoxicity at 70.5 h, %
COCc1ncn(Cc2nc(-c3ccc(OC)cc3F)oc2C)n1	51.2
Cc1nc(N(C)C)nc2c1COCC21CCN(C(=O)C2CC2)C1 (centres undefined)	-3.72
O=C(NC1CC1)N1CCC2(CC1)CC(N1CCOCC1)c1ccccc12 (centres undefined)	-10.8
Cc1nccn1CCN(C)C(=O)C1CCCN(C2CCOCC2)C1 (centres undefined)	-4.07
O=C(Nc1ccnc(OC2CCOC2)c1)c1ccc(F)cc1Cl (centres undefined)	0.257

Now examine the next entry.
*Q* Look up cytotoxicity at 70.5 h: "CC(C)=CCN1C(=O)[C@H]2CC[C@@H]1CN(Cc1cccnc1N)C2"
*A* -4.57

----------
# test method notes: Human HepG2 cell viability assay in 384 well format
# Assay type: toxicity, cell-based
# Design: dose 125 nL, time 70.5 hour; concentration not given beside the values
# condition label: HepG2 cells, read-out: Inhibition
Collected cytotoxicity at 70.5 h values appear next to each entry.
Write the number in % without appending the unit.

Known results for compounds:
compound	cytotoxicity at 70.5 h, %
CC1(C)CC(N(Cc2cccnc2)Cc2cccnc2)CC(C)(C)N1	-1.63
CCn1nc(C)cc1C(=O)NCc1nc(C)no1	-6.53
Fc1ccc(CN2CCn3cc(Cn4cccn4)nc3C2)cc1	-20.8
CC(O)(CCc1ccccc1)CNC(=O)c1ccc(F)cc1 (centres undefined)	14.3
COCCC(Cc1cccc(Br)c1)C(=O)O (centres undefined)	-5.16

*Q* // query cytotoxicity at 70.5 h value for entry CN(Cc1cnn(C)c1)C(=O)C1COc2ccccc2C1 (centres undefined)
*A* -5.03

*Q* Dear colleague, I am looking for the recorded cytotoxicity at 70.5 h of the following compound: "c1cncc(O[C@H]2COCCN(C3CCC3)C2)c1"
*A* 1.49

*Q* Request the reported cytotoxicity at 70.5 h associated with CC(C)S(=O)(=O)C(C)C(=O)Nc1ccc2oc(C3CC3)nc2c1 (centres undefined)
*A* -2.28

*Q* I'd like to know its cytotoxicity at 70.5 h. The compound in question is O=C(C1CCCO1)N1CCC2(CC1)COCCN2CC1CC1 (centres undefined)
*A* 2.48

*Q* Looking for the measured cytotoxicity at 70.5 h of Cc1nn(C)cc1CN1CCCC1c1cccc(Nc2nccs2)n1 (centres undefined) , can you help?
*A* 35.9

*Q* cytotoxicity at 70.5 h for "Cc1nc(CO[C@H]2CN(Cc3cccs3)[C@@H]3COC[C@H]23)cs1" ?
*A* -3.05

*Q* Need cytotoxicity at 70.5 h of Nc1ccnc(CNc2cc(F)ccc2OCC2CCCO2)n1 (centres undefined) , thanks.
*A* -9.07
